Read-out: matrix metalloproteinase-3 (MMP3), MMP3 (gene 4314)
Experiment: LTEA_HepaRG_MMP3: Life Technologies and Expression Analysis (LTEA) Assay for matrix metalloproteinase-3 (MMP3) using HepaRG (AID 2283519)
Conditions: mRNA level, 48 h; actives raise or lower the signal
Active and inactive are the calls of the source. The calls were made as follows: active = hit-call score of the fitted dose curve at least 0.9, where 1 is the maximum; inactive = score below 0.9.
Write down one outcome, taken from Y for active, N for inactive

- COMPOUND: "N#CN"
  LABEL_VALUE: "N"

Inquiry: Hi team, can someone confirm the assay call for CC(C)N(C(=O)COc1nnc(C(F)(F)F)s1)c1ccc(F)cc1 ?
Reply text: N

Inquiry: Hi team, can someone confirm the assay call for O=S1OCC2C(CO1)C1(Cl)C(Cl)=C(Cl)C2(Cl)C1(Cl)Cl (stereo unspecified) ?
Reply text: N

Inquiry: Hi team, can someone confirm the assay call for CCCN(CCC)c1c([N+](=O)[O-])cc(C(F)(F)F)cc1[N+](=O)[O-] ?
Reply text: N

---

Test: BSK_SAg_PBMCCytotoxicity: PBMC Cytotoxicity Assessment in the BioMAP Diversity Plus: SAg Assay (AID 2283093);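 also: PBMC viability measured as Alamar Blue reduction fluorescence at 546/580 nm; fitted both ways against DMSO so a hit may be loss or gain of signal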
Conditions: primary human HUVEC with PBMC
Active and inactive are the calls of the source. Rule for the calls: active = hit-call score of the fitted dose curve at least 0.9, where 1 is the maximum; inactive = score below 0.9.
Write down one outcome, taken from active, inactive

- MOLECULE: "CC1(C)C(C=C(Cl)Cl)C1C(=O)OC(C#N)c1ccc(F)c(Oc2ccccc2)c1 (stereo unspecified)"
  LABEL_VALUE: "inactive"
- MOLECULE: "O=C(O)CCCOc1ccc(Cl)cc1Cl"
  LABEL_VALUE: "inactive"
- MOLECULE: "COC(=O)c1ccccc1S(=O)(=O)NC(=O)N(C)c1nc(C)nc(OC)n1"
  LABEL_VALUE: "inactive"

Inquiry: Hi team, can someone confirm the assay call for CCOC1Oc2ccc(OS(C)(=O)=O)cc2C1(C)C (stereo unspecified) ?
Reply text: active

Inquiry: Hi team, can someone confirm the assay call for COP(=S)(OC)Oc1ccc(SC)c(C)c1 ?
Reply text: inactive

---

Experiment: ATG_E_Box_CIS: Attagene CIS-FACTORIAL HepG2 Assay for human Enhancer Box (E-box) (AID 2282936)
Settings: HepG2 E-box cis-reporter transcription, actives raise or lower the signal
Calls of active or inactive are those of the source. The calls were made as follows: active = hit-call score of the fitted dose curve at least 0.9, where 1 is the maximum; inactive = score below 0.9.
Write down one outcome, taken from label 1 = active, label 0 = inactive

See these solved cases before continuing.
- COMPOUND: "CNC(=O)/C=C(\\C)OP(=O)(OC)OC"
  LABEL_VALUE: "label 0"
- COMPOUND: "C#CCN1C(=O)COc2cc(F)c(N3C(=O)C4=C(CCCC4)C3=O)cc21"
  LABEL_VALUE: "label 0"

Inquiry: Hi team, can someone confirm the assay call for O=C(NC(=O)c1c(F)cccc1F)Nc1ccc(OC(F)(F)C(F)OC(F)(F)F)c(Cl)c1 (configuration not stated) ?
Reply text: label 0

Inquiry: Hi team, can someone confirm the assay call for O=C(O)CCCOc1ccc(Cl)cc1Cl ?
Reply text: label 0

Inquiry: Hi team, can someone confirm the assay call for CCOC1Oc2ccc(OS(C)(=O)=O)cc2C1(C)C (configuration not stated) ?
Reply text: label 0

Inquiry: Hi team, can someone confirm the assay call for CCCN(CCOc1c(Cl)cc(Cl)cc1Cl)C(=O)n1ccnc1 ?
Reply text: label 0

Inquiry: Hi team, can someone confirm the assay call for COc1nn(CSP(=S)(OC)OC)c(=O)s1 ?
Reply text: label 0

Inquiry: Hi team, can someone confirm the assay call for CC(C)(C)C(O)C(Oc1ccc(Cl)cc1)n1cncn1 (configuration not stated) ?
Reply text: label 0

Inquiry: Hi team, can someone confirm the assay call for O=[N+]([O-])/N=C1\NCCN1Cc1ccc(Cl)nc1 ?
Reply text: label 0

Inquiry: Hi team, can someone confirm the assay call for [2H]C1([2H])[n+]2ccccc2-c2cccc[n+]2C1([2H])[2H] ?
Reply text: label 1

Inquiry: Hi team, can someone confirm the assay call for COc1cc(OC)nc(NC(=O)NS(=O)(=O)c2cc(NC=O)ccc2C(=O)N(C)C)n1 ?
Reply text: label 0

Inquiry: Hi team, can someone confirm the assay call for O=C(O)COc1ccc(Cl)cc1Cl ?
Reply text: label 0

---

Molecular target: rat CYP2C11, Cyp2c11 (gene 29277) (UniProt P08683)
Sequence (P08683 whole entry, looked up): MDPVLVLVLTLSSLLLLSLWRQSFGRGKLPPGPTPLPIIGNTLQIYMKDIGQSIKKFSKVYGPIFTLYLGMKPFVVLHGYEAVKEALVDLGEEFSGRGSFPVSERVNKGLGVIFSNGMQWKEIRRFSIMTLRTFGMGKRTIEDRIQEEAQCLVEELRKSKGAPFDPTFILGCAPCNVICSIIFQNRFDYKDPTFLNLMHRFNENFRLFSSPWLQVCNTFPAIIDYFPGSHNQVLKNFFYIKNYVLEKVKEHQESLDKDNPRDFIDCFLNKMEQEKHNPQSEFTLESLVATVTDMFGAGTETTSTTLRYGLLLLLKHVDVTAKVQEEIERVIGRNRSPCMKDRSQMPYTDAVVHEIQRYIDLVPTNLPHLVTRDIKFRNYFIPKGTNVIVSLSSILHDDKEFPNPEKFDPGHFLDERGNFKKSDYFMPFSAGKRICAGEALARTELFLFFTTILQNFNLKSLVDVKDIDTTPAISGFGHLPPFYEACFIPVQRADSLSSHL
Test: NVS_ADME_rCYP2C11: NovaScreen (NVS) CYP450-related Enzyme Activity (ADME) Assay for rat CYP2C11 (AID 2283118)
Active and inactive are the calls of the source. The calls were made as follows: active = hit-call score of the fitted dose curve at least 0.9, where 1 is the maximum; inconclusive = response in the unintended direction; inactive = score below 0.9.
READOUT_LABEL: AC50

These solved cases illustrate the format of a correct answer.
- COMPOUND: "Oc1ccc(Cl)cc1Cc1ccccc1"
  READOUT_LABEL: "AC50"
  RESULT: "7.16 µM (active)"
- COMPOUND: "O=S(=O)(O)C(F)(F)C(F)(F)C(F)(F)C(F)(F)C(F)(F)C(F)(F)C(F)(F)C(F)(F)F"
  READOUT_LABEL: "AC50"
  RESULT: "0.0854 µM (active)"
- COMPOUND: "COP(=S)(OC)Oc1ccc([N+](=O)[O-])cc1"
  READOUT_LABEL: "AC50"
  RESULT: "2.77 µM (active)"
- COMPOUND: "CC(C)N(C(=O)COc1nnc(C(F)(F)F)s1)c1ccc(F)cc1"
  READOUT_LABEL: "AC50"
  RESULT: "6.6 µM (active)"
- COMPOUND: "CCCN(CCOc1c(Cl)cc(Cl)cc1Cl)C(=O)n1ccnc1"
  READOUT_LABEL: "AC50"
  RESULT: "0.0766 µM (active)"

Inquiry: Which AC50 reading was recorded for the compound CCOC1Oc2ccc(OS(C)(=O)=O)cc2C1(C)C (configuration not stated) ?
Reply text: 4.18 µM (active)

Inquiry: Which AC50 reading was recorded for the compound CC(C)(C)C(O)C(Oc1ccc(Cl)cc1)n1cncn1 (configuration not stated) ?
Reply text: 4.45 µM (active)

---

Read-out: Lipoprotein lipase (LPL), LPL (gene 4023)
Assay: LTEA_HepaRG_LPL: Life Technologies and Expression Analysis (LTEA) Assay for Lipoprotein lipase (LPL) using HepaRG (AID 2283515)
Conditions: mRNA level, 48 h; actives raise or lower the signal
Calls of active or inactive are those of the source. Rule for the calls: active = hit-call score of the fitted dose curve at least 0.9, where 1 is the maximum; inactive = score below 0.9.
Write down one outcome, taken from 1 (yes) = active, 0 (no) = inactive

See these solved cases before continuing.
- MOLECULE: "C[C@H]1[C@H](c2ccc(Cl)cc2)SC(=O)N1C(=O)NC1CCCCC1"
  LABEL_VALUE: "1 (yes)"
- MOLECULE: "O=C1c2ccccc2C(=O)N1SC(Cl)(Cl)Cl"
  LABEL_VALUE: "0 (no)"
- MOLECULE: "COP(=S)(OC)Oc1ccc([N+](=O)[O-])cc1"
  LABEL_VALUE: "0 (no)"
- MOLECULE: "O=C(O)CCCOc1ccc(Cl)cc1Cl"
  LABEL_VALUE: "0 (no)"
- MOLECULE: "OCCOc1ccccc1"
  LABEL_VALUE: "0 (no)"

Inquiry: Hi team, can someone confirm the assay call for CCCN(CCOc1c(Cl)cc(Cl)cc1Cl)C(=O)n1ccnc1 ?
Reply text: 1 (yes)

Inquiry: Hi team, can someone confirm the assay call for COP(=S)(OC)Oc1ccc(SC)c(C)c1 ?
Reply text: 0 (no)

Inquiry: Hi team, can someone confirm the assay call for Cc1[nH]c(=O)n(C(C)(C)C)c(=O)c1Cl ?
Reply text: 0 (no)

Inquiry: Hi team, can someone confirm the assay call for N#Cc1c(Cl)c(Cl)c(Cl)c(C#N)c1Cl ?
Reply text: 1 (yes)

---

Read-out: Apoptosis regulator Bcl-2 (Homo sapiens) (UniProt P10415)
Sequence (P10415 whole entry, looked up): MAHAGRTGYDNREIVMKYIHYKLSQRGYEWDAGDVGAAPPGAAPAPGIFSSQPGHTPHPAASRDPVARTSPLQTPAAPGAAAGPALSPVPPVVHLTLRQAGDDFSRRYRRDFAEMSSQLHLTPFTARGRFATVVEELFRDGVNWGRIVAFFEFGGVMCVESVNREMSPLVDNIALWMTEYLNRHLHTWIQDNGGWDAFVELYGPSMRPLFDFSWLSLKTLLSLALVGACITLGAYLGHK
Experiment: LTEA_HepaRG_BCL2: Life Technologies and Expression Analysis (LTEA) Assay for Bcl-2 gene using HepaRG (AID 2283475);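 also: BCL2 transcript by TaqMan qRT-PCR normalised to ACTB GAPDH and POLR2A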
Conditions: mRNA level, 48 h; actives raise or lower the signal
Calls of active or inactive are those of the source. Rule for the calls: active = hit-call score of the fitted dose curve at least 0.9, where 1 is the maximum; inactive = score below 0.9.
Write down one outcome, taken from active, inactive

See these solved cases before continuing.
- COMPOUND: "O=C(Nc1ccccc1)Nc1cnns1"
  LABEL_VALUE: "inactive"
- COMPOUND: "CCOCN(C(=O)CCl)c1c(C)cccc1CC"
  LABEL_VALUE: "inactive"
- COMPOUND: "ClC1C(Cl)C(Cl)C(Cl)C(Cl)C1Cl (configuration not stated)"
  LABEL_VALUE: "inactive"
- COMPOUND: "CC(C)N(C(=O)COc1nnc(C(F)(F)F)s1)c1ccc(F)cc1"
  LABEL_VALUE: "inactive"
- COMPOUND: "CCc1ccc(C(=O)NN(C(=O)c2cc(C)cc(C)c2)C(C)(C)C)cc1"
  LABEL_VALUE: "inactive"

Inquiry: Hi team, can someone confirm the assay call for CCC(C)Nc1c([N+](=O)[O-])cc(C(C)(C)C)cc1[N+](=O)[O-] (configuration not stated) ?
Reply text: inactive

Inquiry: Hi team, can someone confirm the assay call for CNC(=O)Oc1ccccc1OC(C)C ?
Reply text: inactive

Inquiry: Hi team, can someone confirm the assay call for CCCN(CCOc1c(Cl)cc(Cl)cc1Cl)C(=O)n1ccnc1 ?
Reply text: active

Inquiry: Hi team, can someone confirm the assay call for O=C1c2ccccc2C(=O)N1SC(Cl)(Cl)Cl ?
Reply text: inactive

Inquiry: Hi team, can someone confirm the assay call for Oc1cc(Cl)ccc1Oc1ccc(Cl)cc1Cl ?
Reply text: inactive

Inquiry: Hi team, can someone confirm the assay call for CC(C)OC(=O)Nc1cccc(Cl)c1 ?
Reply text: inactive

Inquiry: Hi team, can someone confirm the assay call for N#CN ?
Reply text: inactive
